Test system: PANC-1 (pancreas)
method: Cell growth inhibition assay (SRB), PANC-1
Type: cell-based, human
condition.set: Homo sapiens; PANC-1; SRB method, 96 hours incubation; read-out: Inhibition of cell growth (IC50, μM) by quinoxaline-piperazine compounds against human cancer cell lines: PANC-1
assay.readout: IC50 (µM)

Worked cases, answers included:
* COc1cc(OC)cc(N2CCN(C(=O)Nc3nc4cc(C)ccc4nc3OC)CC2)c1 | 0.07
* COc1cccc(N2CCN(C(=O)Nc3nc4cc(Cl)ccc4nc3OC)CC2)c1 | 1.66
* COc1nc2ccc(Cl)cc2nc1NC(=O)N1CCN(c2cccc(C)c2)CC1 | 0.95
* COc1cccc(N2CCN(C(=O)Nc3nc4cc(C)ccc4nc3OC)CC2)c1 | 1.31
* COc1nc2ccc(Cl)cc2nc1NC(=O)N1CCN(c2cccc(Cl)c2)CC1 | 0.93

P. COc1nc2cc(F)ccc2nc1NC(=O)N1CCN(c2cccc(C)c2)CC1
Q. COc1cc(OC)cc(N2CCN(C(=O)Nc3nc4cc(F)ccc4nc3OC)CC2)c1
Exercise: Would you let me know which has the greater IC50 value, P or Q ? Identify your pick by its label.
Key: P
(P: 0.95 µM, Q: 0.021 µM)
